In this section we review reported IC50 values for a set of compounds.
System: MCF7
procedure summary: Antiproliferative activity against human MCF7 cells measured after 72 hrs by MTT assay
Format: functional, cell-based
conditions: MCF7, 72 h
The answer is to be given in nM; state only the numeric part.

Cc1[nH]c2cc(F)c(N3CCN(CCN(C)C)CC3)cc2c1/C(=N/Nc1nc(-c2ccc(F)cc2)c(C#N)s1)C(F)(F)F: 1010
CCN1CCN(Cc2csc(-c3ccc4c(c3)c(/C(=N/Nc3nc(-c5ccc(Cl)cc5)c(C#N)s3)C(F)(F)F)cn4CC)n2)CC1: 5730

Form entry - test system: MCF7; read-out: IC50; compound: `CCn1cc(/C(=N/Nc2nc(-c3ccc(OC)cc3)c(C#N)s2)C(F)(F)F)c2cc(-c3nc(CN4CCC[C@H]4CO)cs3)ccc21`
4260

Return IC50 measured with MCF7 given this compound: `CCn1cc(/C(=N/Nc2nc(-c3ccc(F)cc3)c(C#N)s2)C(F)(F)F)c2cc(-c3nc(CN4CCCC4)cs3)ccc21`
2850

Return IC50 measured with MCF7 given this compound: `CCn1cc(/C(=N/Nc2nc(-c3ccc(F)cc3)c(C#N)s2)C(F)(F)F)c2cc(-c3nc(CN4CCN(CCO)CC4)cs3)ccc21`
3250

# value lookup — system MCF7, readout IC50, item `CCn1cc(/C(=N/Nc2nc3ccccc3s2)C(F)(F)F)c2cc(-c3nc(CN4CCC[C@H]4C(=O)O)cs3)ccc21`
1920

Fill in the recorded IC50 for this compound, with MCF7 as test system: `CCn1cc(/C(=N/Nc2nc3ccccc3s2)C(F)(F)F)c2cc(-c3nc(CN4CCN(C)CC4)cs3)ccc21`
2780

Form field - read-out: IC50; system: MCF7; submitted item: `CCn1cc(/C(=N/Nc2nc3ccccc3s2)C(F)(F)F)c2cc(-c3nc(CN4CCOCC4)cs3)ccc21`
2730

---

Reported values: IC50 for Autotaxin (Homo sapiens, UniProt Q13822), one per item.
// return numeric value only (unit: nM, not printed)

See these solved cases before continuing.
CCn1cc(/C(=N/Nc2nc(-c3ccc(F)cc3)c(C#N)s2)C(F)(F)F)c2cc(-c3nc(CN4CC(O)C4)cs3)ccc21: 1250
CCn1cc(/C(=N/Nc2nc(-c3ccc(F)cc3)c(C#N)s2)C(F)(F)F)c2cc(-c3nc(CN4CCOCC4)cs3)ccc21: 2370
CCn1cc(/C(=N/Nc2nc3ccccc3s2)C(F)(F)F)c2cc(-c3nc(CN4CCC[C@H]4C(=O)O)cs3)ccc21: 72
CCn1cc(/C(=N/Nc2nc(-c3ccc(Cl)cc3)c(C#N)s2)C(F)(F)F)c2cc(-c3nc(CN4CCC(O)CC4)cs3)ccc21: 1430
CCn1cc(/C(=N/Nc2nc(-c3ccc(Cl)cc3)c(C#N)s2)C(F)(F)F)c2cc(-c3nc(CN4CCC[C@H]4CO)cs3)ccc21: 1410

// fetch Autotaxin (Homo sapiens, UniProt Q13822) IC50 for `CCn1cc(/C(=N/Nc2nc(-c3ccc(Cl)cc3)c(C#N)s2)C(F)(F)F)c2cc(-c3nc(CN4CCCCC4)cs3)ccc21`
6070

What value of IC50 on Autotaxin (Homo sapiens, UniProt Q13822) does `Cc1[nH]c2cc(F)c(N3CCN(CCN(C)C)CC3)cc2c1/C(=N/Nc1nc(-c2ccc(F)cc2)c(C#N)s1)C(F)(F)F` have?
19
